target: furin, P09958; assay: furin cleavage Z-score vs untreated control; higher = more cleavage, active = 3.5 or more, inactive = 1 or less, 8 variable residues between constant flanks; conditions: 7.5 min;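 further: purified furin at 1:10 enzyme:substrate in 50 mM HEPES pH 7.5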
Sequence (P09958 whole entry): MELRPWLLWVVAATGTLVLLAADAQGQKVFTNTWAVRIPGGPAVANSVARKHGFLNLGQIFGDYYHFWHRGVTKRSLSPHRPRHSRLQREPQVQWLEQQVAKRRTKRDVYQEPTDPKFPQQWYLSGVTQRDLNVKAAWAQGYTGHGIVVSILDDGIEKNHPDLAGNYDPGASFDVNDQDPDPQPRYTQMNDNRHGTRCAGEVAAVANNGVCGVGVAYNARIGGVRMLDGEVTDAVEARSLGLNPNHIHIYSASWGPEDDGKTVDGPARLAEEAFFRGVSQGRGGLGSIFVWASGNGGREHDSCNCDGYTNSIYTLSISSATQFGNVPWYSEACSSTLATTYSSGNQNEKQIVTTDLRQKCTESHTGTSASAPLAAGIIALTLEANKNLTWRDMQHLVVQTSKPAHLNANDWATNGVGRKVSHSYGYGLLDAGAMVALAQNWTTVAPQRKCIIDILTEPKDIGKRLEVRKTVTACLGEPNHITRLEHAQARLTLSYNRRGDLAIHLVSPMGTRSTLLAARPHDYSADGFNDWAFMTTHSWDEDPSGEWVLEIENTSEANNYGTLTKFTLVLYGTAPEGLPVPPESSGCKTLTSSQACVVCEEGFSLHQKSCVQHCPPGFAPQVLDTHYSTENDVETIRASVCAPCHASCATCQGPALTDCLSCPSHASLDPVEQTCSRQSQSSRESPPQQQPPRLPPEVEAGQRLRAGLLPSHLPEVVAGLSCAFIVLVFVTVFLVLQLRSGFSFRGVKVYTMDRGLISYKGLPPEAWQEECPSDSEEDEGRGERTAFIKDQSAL
The list shows a part of the results. The true hit rate is not given.
Measured furin cleavage Z-score, listed per entry.
metric: furin cleavage Z-score

# residue_string, meas_value
measured = [
    ("CAAPRSSMSNAGNASASA [TR10]", -0.848),
    ("CAQTPCSGSWAGNASASA [HC1842]", -1.2),
    ("CAKCLIRLKPAGNASASA [HC965]", -0.996),
    ("CAEPLDLPPIAGNASASA [HC1598]", 0.806),
    ("CAVVVCSMSYAGNASASA [HC2030]", 0.0385),
    ("CAGGSRWRRSAGNASASA [FS-124]", 6.79),
    ("CAYVGGPLTNAGNASASA [HC1501]", -0.238),
]
